Recorded values, source patent US6914122B2.

- TARGET_UNDER_TEST: Recombinant heterodimeric HCV NS3/NS4A protease (strain 1a) (Hepatitis C virus genotype 1a)
- Sequence (P27958 1027-1657 limits assumed): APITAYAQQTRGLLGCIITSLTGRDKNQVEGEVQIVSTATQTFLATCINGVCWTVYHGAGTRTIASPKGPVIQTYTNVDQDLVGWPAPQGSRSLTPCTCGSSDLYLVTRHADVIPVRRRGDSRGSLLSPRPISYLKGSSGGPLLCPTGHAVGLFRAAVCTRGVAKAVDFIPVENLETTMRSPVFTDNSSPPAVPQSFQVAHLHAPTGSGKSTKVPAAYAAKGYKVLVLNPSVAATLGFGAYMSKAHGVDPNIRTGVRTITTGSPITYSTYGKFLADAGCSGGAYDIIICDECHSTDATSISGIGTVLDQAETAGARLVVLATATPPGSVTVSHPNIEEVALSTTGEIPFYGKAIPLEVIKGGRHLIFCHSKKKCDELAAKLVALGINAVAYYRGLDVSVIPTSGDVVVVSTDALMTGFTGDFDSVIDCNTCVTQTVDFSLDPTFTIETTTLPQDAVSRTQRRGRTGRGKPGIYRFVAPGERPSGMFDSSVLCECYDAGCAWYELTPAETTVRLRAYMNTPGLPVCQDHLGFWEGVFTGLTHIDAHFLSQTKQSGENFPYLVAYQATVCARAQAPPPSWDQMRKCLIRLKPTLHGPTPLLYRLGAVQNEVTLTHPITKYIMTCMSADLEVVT
- Sequence (P27958 1658-1711 partner limits assumed): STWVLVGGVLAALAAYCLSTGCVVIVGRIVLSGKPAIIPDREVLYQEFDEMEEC
- TEST_METHOD_NOTES: biochemical
pKi: −log10 of the molar value. *1 amine or outer side, *2 acyl side, *3 side chain or, on linkers, in order; H or OH if unused. Where a SMILES comes first, the peptide text is derived from it. Bridges are numbered along the chain shown (N, C = ends). [ ]: non-standard residue; d: D form. Glutaryl = O=C(CCCC(=O)[*:2])[*:1]; X1 = CCCC(N[*:1])C(=O)C(=O)[*:2]; Chg = N[C@H](C(=O)O)C1CCCCC1; Phg = N[C@H](C(=O)O)c1ccccc1; Suc = O=C(CCC(=O)[*:2])[*:1]
PROPERTY_NAME: pKi

Worked examples, 4 compounds total:
[
  {
    "COMPOUND": "CCCC(NC(=O)[C@@H]1Cc2cccc(c2)OCCCCCCOC(=O)N[C@@H](C2CCCCC2)C(=O)N1)C(=O)C(=O)NCC(=O)N[C@H](C(=O)O)c1ccccc1 (some centres unmarked)",
    "pKi": "6.00 to 9.00"
  },
  {
    "COMPOUND": "CCCC(NC(=O)[C@@H]1CCCCNC(=O)CCCC(=O)NCC(=O)N[C@@H](C2CCCCC2)C(=O)N1)C(=O)C(=O)NCC(=O)N[C@H](C(N)=O)c1ccccc1 (some centres unmarked) [Example 50] (G[Chg]K[X1]G[Phg]-NH2; linker N-3 via Glutaryl)",
    "pKi": "4.00 to 5.96"
  },
  {
    "COMPOUND": "CCCC(NC(=O)[C@@H]1Cc2cccc(c2)OCCCCCNC(=O)N[C@@H](C2CCCCC2)C(=O)N1)C(=O)C(=O)NCC(=O)N[C@H](C(=O)OC(C)(C)C)c1ccccc1 (some centres unmarked)",
    "pKi": "4.00 to 5.96"
  },
  {
    "COMPOUND": "CCCC(NC(=O)[C@@H]1CCCCNC(=O)CCC(=O)NCC(=O)N[C@@H](C2CCCCC2)C(=O)N1)C(=O)C(=O)NCC(=O)N[C@H](C(N)=O)c1ccccc1 (some centres unmarked) [Example 49] (G[Chg]K[X1]G[Phg]-NH2; linker N-3 via Suc)",
    "pKi": "4.00 to 5.96"
  }
]

Read the next record carefully.
Request: So what does the record say about pKi for CCCC(NC(=O)[C@@H]1CCCCNC(=O)CCC(=O)N[C@H](CC(=O)O)C(=O)N[C@@H](C2CCCCC2)C(=O)N1)C(=O)C(=O)NCC(=O)N[C@H](C(N)=O)c1ccccc1 (some centres unmarked) [Example 45] ([dD][Chg]K[X1]G[Phg]-NH2; linker N-3 via Suc) ?
Response: 4.00 to 5.96
